# assay.system: TSLP (Homo sapiens)
# Sequence (Q969D9 29-159): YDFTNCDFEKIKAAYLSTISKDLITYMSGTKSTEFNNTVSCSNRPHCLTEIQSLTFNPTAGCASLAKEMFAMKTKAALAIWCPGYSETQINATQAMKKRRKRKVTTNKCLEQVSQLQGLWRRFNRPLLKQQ
# experimental.protocol: Human TSLP Surface Plasmon Resonance (SPR) binding assay
# condition.context: biotinylated human TSLP immobilized on streptavidin chip; 20° C.; steady-state or kinetic 1:1 fit; read-out: hTSLP SPR Kd
*1 amine or outer side, *2 acyl side, *3 side chain or, on linkers, in order; H or OH if unused. Where a SMILES comes first, the peptide text is derived from it. Bridges are numbered along the chain shown (N, C = ends). [ ]: non-standard residue; d: D form. TATA = O=C(CC[*:1])N1CN(C(=O)CC[*:2])CN(C(=O)CC[*:3])C1; Dap = NC[C@H](N)C(=O)O
measured.endpoint: Kd (µM)
Give the value in µM but do not write µM after it.

// known answers, use as guide
>>> measured_value("CC(=O)N[C@H]1CSCCC(=O)N2CN3CN(C2)C(=O)CCSC[C@H](NC(=O)[C@H](CC(=O)O)NC(=O)[C@H](CCC(=O)O)NC(=O)[C@H](CC(C)C)NC(=O)[C@H](Cc2c[nH]c4ccccc24)NC(=O)[C@H](CCC(N)=O)NC1=O)C(=O)N[C@@H](Cc1c[nH]c2ccccc12)C(=O)N[C@@H](CCCNC(=N)N)C(=O)NCC(=O)N[C@@H](Cc1ccc(Cl)c(Cl)c1)C(=O)N[C@H](C(N)=O)CSCCC3=O [Example 11, Ac-(SEQ ID NO: 9)]")
0.0058
>>> measured_value("CC(=O)N[C@H]1CSCCC(=O)N2CN3CN(C2)C(=O)CCSC[C@H](NC(=O)[C@H](CC(N)=O)NC(=O)[C@H](CCC(=O)O)NC(=O)[C@H](CC(C)C)NC(=O)[C@H](Cc2c[nH]c4ccccc24)NC(=O)[C@H](Cc2c[nH]cn2)NC1=O)C(=O)N[C@@H](Cc1c[nH]c2ccccc12)C(=O)N[C@@H](CN)C(=O)NCC(=O)N[C@@H](Cc1ccccc1)C(=O)N[C@H](C(N)=O)CSCCC3=O [Example 159, Ac-(SEQ ID NO: 117)] (Ac-CHWLENCW[Dap]GFC-NH2; linker 1-7-12 via TATA; C-terminus assumed)")
5.6
>>> measured_value("CC(=O)N[C@H]1CSCCC(=O)N2CN3CN(C2)C(=O)CCSC[C@H](NC(=O)[C@H](CC(=O)O)NC(=O)[C@H](CCC(=O)O)NC(=O)[C@H](CC(C)C)NC(=O)[C@H](Cc2c[nH]c4ccc(F)cc24)NC(=O)[C@H](CCC(N)=O)NC1=O)C(=O)N[C@@H](Cc1c[nH]c2ccc(F)cc12)C(=O)N[C@@H](CCCNC(=N)N)C(=O)NCC(=O)N[C@@H](Cc1ccc(F)cc1)C(=O)N[C@H](C(N)=O)CSCCC3=O [Example 21, Ac-(SEQ ID NO: 19)]")
0.0092
>>> measured_value("CC(C)C[C@@H]1NC(=O)[C@H](Cc2c[nH]c3ccccc23)NC(=O)[C@H](CCC(N)=O)NC(=O)[C@@H](N)CSCCC(=O)N2CN3CN(C2)C(=O)CCSC[C@H](NC(=O)[C@H](CC(=O)O)NC(=O)[C@H](CCC(=O)O)NC1=O)C(=O)N[C@@H](Cc1c[nH]c2ccccc12)C(=O)N[C@@H](CCCNC(=N)N)C(=O)NCC(=O)N[C@@H](Cc1ccc(F)cc1)C(=O)N[C@H](C(=O)O)CSCCC3=O [Example 48, (SEQ ID NO: 15)-COOH]")
0.033

Documented Kd of CC(=O)N[C@H]1CSCCC(=O)N2CN3CN(C2)C(=O)CCSC[C@H](NC(=O)[C@H](CC(=O)O)NC(=O)[C@H](CCC(=O)O)NC(=O)[C@H](CC(C)C)NC(=O)[C@H](Cc2c[nH]c4ccccc24)NC(=O)[C@H](CCC(N)=O)NC1=O)C(=O)N[C@@H](Cc1c[nH]c2ccccc12)C(=O)N[C@@H](CCCNC(=N)N)C(=O)NCC(=O)N[C@@H](Cc1ccc(Br)cc1)C(=O)N[C@H](C(N)=O)CSCCC3=O [Example 26, Ac-(SEQ ID NO: 24)] : 0.011
